meta.source: paper PMC4355590

experiment: Pharmacokinetic study: volunteers orally received 60 mL of guaco syrup spiked with 1500 mg of COU, plasma by HPLC-MS/MS; assay type: in vivo, human; settings: both sexes, human, plasma, po, 1500 mg, human plasma, 60 mL guaco syrup spiked with 1500 mg coumarin, n = 5, mean ± S.D., read-out: Cmax
test-readout: Cmax (µg/mL)

a: O=c1ccc2ccccc2o1
b: O=c1ccc2ccc(O)cc2o1 [7-HCOU, 7-hydroxycoumarin]
c: O=C(O)/C=C/c1ccccc1O
Prompt: Rank by Cmax (largest to smallest). Your task in answering is to list the labels in the requested order.
Completion: a, c, b
(a: 0.735 µg/mL, c: 0.231 µg/mL, b: 0.085 µg/mL)

----------
assay: Stability of stock solutions and working standard solutions; format: physicochemical; details: 30 days at 4 °C; high level
test-readout: RE (%)

# annotated cases, reported RE shown
INSERT INTO assay_data (compound, test_readout, measurement) VALUES
  ('C=C1C[C@@]23CC[C@H]4[C@@](C)(CCC[C@@]4(C)C(=O)O)[C@@H]2CC[C@@H]1C3 [KAU, kaurenoic acid]', 'RE', 3.33),
  ('O=c1ccc2ccc(O)cc2o1 [7-HCOU, 7-hydroxycoumarin]', 'RE', 5.57);

a: O=C(O)/C=C/c1ccccc1O [OCA, o-coumaric acid]
b: O=c1ccc2ccccc2o1 [COU, 1,2 benzopyrone]
Prompt: Could you tell me which of these two has the smaller RE figure? First: a Second: b Write down the label attached to your selection.
Completion: a

----------
Test: Stability in human plasma: short-term, freeze-thaw and long-term
Type: in vitro ADME
Settings: three freeze–thaw cycles, plasma; low level (50.0, 12.5, 25.0, 10.0 ng/mL); n = 8, ± SD
Experimental: The samples were vortexed for 2 min and then were kept at room temperature for 8 h. Afterward, the samples were spiked with 50 μL of IS solution and were vortexed (2 min) and submitted to the extraction procedures. The short-term stability was evaluated by comparing the mean recovery of the analytes and the IS obtained from stored samples with the mean values obtained with freshly prepared samples, at same concentration levels. […]
test-readout: Mean recovery (ng/mL)

INSERT INTO measurements (compound, units_text, measurement) VALUES
  ('O=c1ccc2ccc(O)cc2o1 [7-HCOU, 7-hydroxycoumarin]', 'ng/mL', 11.6);

P: O=C(O)/C=C/c1ccccc1O
Q: C=C1C[C@@]23CC[C@H]4[C@@](C)(CCC[C@@]4(C)C(=O)O)[C@@H]2CC[C@@H]1C3
R: O=c1ccc2ccccc2o1
Prompt: Parameters: sort_field (Mean recovery), sort_dir (desc). Rank them, then answer with their labels in that order.
Completion: R, P, Q
(R: 53.8 ng/mL, P: 22.9 ng/mL, Q: 9.9 ng/mL)

----------
assay: Second screening: 60 mL of guaco syrup spiked with 100, 500, 1000 or 1500 mg of COU; format: in vivo, human; conditions: both sexes, human, plasma, oral; read-out: time of peak concentration in plasma
test-readout: Tmax

Prompt: Quick one: Tmax of O=c1ccc2ccccc2o1 [COU, 1,2 benzopyrone] ?
Completion: 0.75 to 2 h

----------
assay: Stability in human plasma: short-term, freeze-thaw and long-term; type: in vitro ADME; settings: freeze–thaw cycles; high level
test-readout: RE (%)

a: O=c1ccc2ccccc2o1
b: O=c1ccc2ccc(O)cc2o1 [7-HCOU, 7-hydroxycoumarin]
c: C=C1C[C@@]23CC[C@H]4[C@@](C)(CCC[C@@]4(C)C(=O)O)[C@@H]2CC[C@@H]1C3
d: O=C(O)/C=C/c1ccccc1O
Prompt: Sort the list above on RE in ascending fashion. Reply with the labels, ordered as the question asks.
Completion: b, d, c, a
